experimentalSystem: Carbonic anhydrase 1 (Homo sapiens)
Sequence (P00915 whole entry): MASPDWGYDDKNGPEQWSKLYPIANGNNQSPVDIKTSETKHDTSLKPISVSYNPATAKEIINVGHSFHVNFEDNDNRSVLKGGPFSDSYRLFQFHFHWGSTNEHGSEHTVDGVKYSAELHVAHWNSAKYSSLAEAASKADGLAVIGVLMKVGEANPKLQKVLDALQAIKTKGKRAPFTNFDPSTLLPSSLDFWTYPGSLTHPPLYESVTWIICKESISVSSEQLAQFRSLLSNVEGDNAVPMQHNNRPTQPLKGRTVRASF
pKi: −log10 of the molar value.

>  <compound>
O=[Se](=O)(O)O [SODIUM SELENATE]

>  <pKi>
3.24

$$$$
